targetUnderTest: human GPR40 (Homo sapiens, UniProt O14842)
Construct: expressed in transfected cells; host or cells: HEK cells stably expressing the aequorin reporter
Sequence (O14842 whole entry): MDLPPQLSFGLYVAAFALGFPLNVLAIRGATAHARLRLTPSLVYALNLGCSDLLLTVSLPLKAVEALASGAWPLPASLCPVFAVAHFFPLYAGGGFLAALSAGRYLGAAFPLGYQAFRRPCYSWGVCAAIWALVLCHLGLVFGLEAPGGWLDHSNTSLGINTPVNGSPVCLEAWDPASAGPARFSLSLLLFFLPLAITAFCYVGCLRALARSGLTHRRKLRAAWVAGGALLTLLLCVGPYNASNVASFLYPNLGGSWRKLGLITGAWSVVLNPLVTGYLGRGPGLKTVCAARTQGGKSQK
methodSummary: Inositol Phosphate Turnover (IP1) Assay 3
Format: cell-based
experimentalContext: HEK cells stably expressing human GPR40
pEC50: −log10 of the molar value.
recordedEndpoint: pEC50

>>> reportedresult("COc1cc(-c2ccc(C3CCc4ccc([C@H](C5CC5)[C@H](C)C(=O)O)cc4O3)cc2CN(C)C(C)(C)C)c(C#N)cn1 (single isomer, unassigned) [Example 194]")
8.96

[A] COc1cc(-c2ccc(C3CCc4ccc([C@H](C5CC5)[C@H](C)C(=O)O)cc4O3)cc2CN2CCC(C(N)=O)CC2)c(F)cn1 (some centres unmarked)
[B] CCN(C)C(C)c1cc(C2CCc3ccc([C@H](C4CC4)[C@@H](C)C(=O)O)cc3O2)ccc1-c1cc(OC)ncc1F (some centres unmarked)
[C] COc1cc(-c2ccc(C3CCc4ccc([C@H](C5CC5)[C@H](C)C(=O)O)cc4O3)c(CN(C(C)C)C(C)C)c2)ccn1 (single isomer, unassigned) [Example 115b]
[D] COc1cc(-c2ccc(C3CCc4ccc([C@H](C5CC5)[C@H](C)C(=O)O)cc4O3)cc2CN2CCC3(CC2)CC3)c(F)cn1 (some centres unmarked)
Order the entries by their reported pEC50, beginning at the minimum. I'd appreciate it if you listed the labels in the requested order. A, C, B, D
(A: 6.56, C: 8.28, B: 8.66, D: 9.22)

* * *

targetUnderTest: human GPR40 (Homo sapiens)
Construct: expressed in transfected cells; host or cells: HEK cells stably expressing the aequorin reporter
methodSummary: Inositol Phosphate Turnover (IP1) Assay 3
Type: cell-based
experimentalContext: HEK cells stably expressing human GPR40
pEC50: −log10 of the molar value.
recordedEndpoint: pEC50

Worked examples follow.
>>> reportedresult("COc1cc(-c2ccc(C3CCc4ccc([C@H](C5CC5)[C@H](C)C(=O)O)cc4O3)cc2CN2[C@H](C)CCC[C@H]2C)ccn1 (stereo partly drawn) [Example 240]")
8.85
>>> reportedresult("COc1cc(-c2ccc(C3CCc4ccc([C@H](C5CC5)[C@H](C)C(=O)O)cc4O3)cc2CN2CCC[C@@H]2C)ccn1 (stereo partly drawn) [Example 279]")
7.52
>>> reportedresult("COc1cc(-c2ccc(C3CCc4ccc([C@H](C5CC5)[C@H](C)C(=O)O)c(F)c4O3)cc2CN2CCC[C@@H]2C)c(F)cn1 (single isomer, unassigned) [Example 213]")
8.85
>>> reportedresult("COc1cc(-c2ccc(C3CCc4ccc([C@H](C5CCC5)[C@H](C)C(=O)O)cc4O3)cc2CN2CCCC2C)c(F)cn1 (single isomer, unassigned) [Example 101]")
9.60

[P] COc1cc(-c2ccc([C@H]3CCc4ccc([C@H](C5CC5)[C@H](C)C(=O)O)cc4O3)cc2CN2CCCCC23CC3)ccn1 [Example 176]
[Q] CCN(C)Cc1cc(C2CCc3ccc([C@H](C4CC4)[C@H](C)C(=O)O)cc3O2)ccc1-c1cc(OC)ncc1C#N (single isomer, unassigned) [Example 195]
Given the listed records, identify the one among P and Q with higher pEC50. Reply briefly: the label of your chosen item. P

* * *

targetUnderTest: human GPR40 (Homo sapiens)
Construct: expressed in transfected cells; host or cells: HEK cells stably expressing the aequorin reporter
methodSummary: Inositol Phosphate Turnover (IP1) Assay 3
Assay type: cell-based
experimentalContext: HEK cells stably expressing human GPR40
pEC50: −log10 of the molar value.
recordedEndpoint: pEC50

These recorded examples may help you get a feel for the data.
>>> reportedresult("COc1cc(-c2ccc(C3CCc4ccc([C@H](C5CC5)[C@H](C)C(=O)O)c(F)c4O3)cc2CN2[C@H](C)CC[C@H]2C)c(F)cn1 (single isomer, unassigned) [Example 208]")
9.14
>>> reportedresult("CCN(Cc1cc(C2CCc3ccc([C@H](C4CC4)[C@H](C)C(=O)O)cc3O2)ccc1-c1ccnc(OC)c1)C(C)(C)C (stereo partly drawn)")
8.89

[I] COc1cc(-c2ccc(C3CCc4ccc([C@H](C5CC5)[C@H](C)C(=O)O)cc4O3)cc2CN2[C@@H](C)CCC[C@@H]2C)ccn1 (stereo partly drawn)
[II] CCN(Cc1cc(C2CCc3ccc([C@H](C4CC4)[C@H](C)C(=O)O)cc3O2)c(F)cc1-c1ccnc(OC)c1)C(C)C (single isomer, unassigned) [Example 185]
[III] COc1cc(-c2ccc(C3CCc4ccc([C@H](C5CCC5)[C@H](C)C(=O)O)cc4O3)cc2CN2[C@H](C)CC[C@H]2C)c(F)cn1 (single isomer, unassigned) [Example 97]
[IV] CCOc1cc(-c2ccc(C3CCc4ccc([C@H](C5CC5)[C@H](C)C(=O)O)cc4O3)cc2CN2CCCC2)c(Cl)cn1 (single isomer, unassigned) [Example 218]
With regard to pEC50, arrange the entries in ascending order, please. Give me the labels in the order the question wants. IV, II, I, III
(IV: 8.00, II: 8.36, I: 8.96, III: 9.72)
